- Study system: Cytochrome P450 3A4 (Homo sapiens)
- Experiment: qHTS Assay for Activators of Cytochrome P450 3A4 (AID 885); also: nearly all actives have a fitted effect of over 65% in size
- Assay conditions: recombinant CYP3A4, Luciferin-PPXE luminescence, 60 min; series mostly up to 57.1 µM
- Method: NIH Molecular Libraries Screening Centers Network [MLSCN] NIH Chemical Genomics Center [NCGC] The P450 gene superfamily is involved in the metabolism and clearance of xenobiotics. […] The luciferin is then measured by luminescence after the addition of a luciferase detection reagent. […] Inhibitors and some substrates limit the production of luciferin, and decrease measured luminescence; activators increase the production of luciferin and luminescence. […]
Active and inactive are the calls of the source. Calls follow the shape of the dose curve; as a rule, active = well fitted activation curve with a large enough effect; inconclusive = small, poorly fitted or top-dose-only effect; inactive = no such curve, though single readings can be large or run the other way.
Select the matching outcome among YES (active), NO (inactive)

Use the examples below as a reference point.
# Molecule, Label class
measured = [
    ("O=c1cc(-c2ccc(O)cc2)oc2ccc(O)cc12", "NO"),
    ("COc1ccc(/C=C/C(=O)c2ccc(O)cc2O)cc1", "NO"),
    ("COc1ccc(CC(=O)c2ccc(O)cc2O)cc1", "NO"),
    ("COc1cccc2c1CCC1CC(=O)CC[C@@]21C (stereo partly specified)", "NO"),
]

Any idea what this test logged for "CCCc1cc(OC)c2c(c1)OCO2" ?
NO

Call for entry C/C=C(/C)C(=O)OC1Cc2c(ccc3ccc(=O)oc23)OC1(C)C (stereo unspecified) :
YES

---

- System: CP260
- Experiment: qHTS profiling for inhibitors of Plasmodium falciparum proliferation (AID 504749); also: nearly all actives have a fitted effect of over 60% in size
- Assay conditions: P. falciparum in erythrocytes, SYBR Green DNA, 72 h; series mostly up to 12.8 µM
Records with an inconclusive call do not appear. Active and inactive are the calls of the source. Calls follow the shape of the dose curve; as a rule, active = well fitted inhibition curve with a large enough effect; inconclusive = small, poorly fitted or top-dose-only effect; inactive = flat fitted curve, though single readings scatter.
Result category, one only: active, inactive

Example entries and their recorded answers appear below.
# Molecule, Label class
measured = [
    ("CCC(C)(C)C(=O)O[C@@H]1C[C@H](C)C=C2C=C[C@H](C)[C@@H](CC[C@H]3C[C@@H](O)CC(=O)O3)[C@H]21", "inactive"),
    ("CCC(C)C(=O)OC1CCC=C2C=CC(C)C(CCC3CC(O)CC(=O)O3)[C@@H]21 (stereo not given in full)", "inactive"),
    ("CC(C)C1CCC(C(=O)NC(Cc2ccccc2)C(=O)O)CC1 (stereo not given)", "inactive"),
    ("CCN1CCC[C@@H](OC(=O)C(c2ccccc2)c2ccccc2)C1", "inactive"),
]

Would you kindly look at the next entry?
Call for entry COc1ccc(CC(N)C(=O)NC2C(CO)OC(n3cnc4c(N(C)C)ncnc43)C2O)cc1 (stereo not given) :
active

---

Documented Potency across a set of compounds
- Experiment: Primary qHTS for inhibitors of nuclear receptor binding SET domain protein 2 (NSD2) in an isogenic RCH-ACV NSD2 p.E1099K mutant (9B) (AID 1645876); also: potency is read from the fitted curve at half-maximal effect; nearly all actives have a fitted effect of over 70% in size
- Assay conditions: RCH-ACV (leukaemia line) NSD2 E1099K (9B) viability, CellTiter-Glo, 72 h; series mostly up to 44.9 µM
Inconclusive results are not listed. Active and inactive are the calls of the source. The call rests on the fitted dose curve; in most records, active means well fitted inhibition curve with a large enough effect; inconclusive means small, poorly fitted or top-dose-only effect; inactive means flat fitted curve, though single readings scatter.

Worked examples, 2 compounds total:
# Input smiles, Reported endpoint, Result
rows = [
    ("CO[C@H]1C[C@@H]2CC[C@@H](C)[C@@](O)(O2)C(=O)C(=O)N2CCCC[C@H]2C(=O)O[C@H]([C@H](C)C[C@@H]2CC[C@@H](OCCO)[C@H](OC)C2)CC(=O)[C@H](C)/C=C(/C)[C@@H](O)[C@@H](OC)C(=O)[C@H](C)C[C@H](C)/C=C\\C=CC=C1C", "Potency", "118 nM (active)"),
    ("COc1ccc(/C=C\\c2cc(OC)c(OC)c(OC)c2)cc1O", "Potency", "10.5 nM (active)"),
]

Read the next record carefully.
Give Potency for the following compound: "CN[C@H]1CN(c2ccc3c(=O)c(C(=O)O)cn(-c4nccs4)c3n2)C[C@@H]1OC"
135 nM (active)
